# Test system: MS2 coat protein
# Experiment: apparent KD of MS2 coat protein; designed switch direction (-1 OFF switch, 1 ON switch): 1; higher = weaker reporter binding
# Experimental context: input ligand: microRNA oligo, concentration not stated
Exercise: state measured apparent KD of MS2 coat protein for each of the sequences provided.
Numeric answer only, unit nM assumed.

// query Note down apparent KD of MS2 coat protein recorded for ACUCAGUACAAUUUAGAUCUACAUGAGGAUCACCCAUGUACUGAGGAUAUCAGCUCGAAUAGAGCUGAGAAGGCAGUUGUACUA [SSNG3/10-A1] (Eterna round: R96, puzzle: Same State NG 3)
// result 138

// query Note down apparent KD of MS2 coat protein recorded for UGGUACAUGGGAGGAUAUCUCGUGGAGACAUGAGGAUCACCCAUGUAGAUGGCCGGUAACCGGUGAGAGAAGGCCCAUGUACCU [JL SSNG1 3.69] (Eterna round: R96, puzzle: Same State NG 2)
// result 42.2

// query Note down apparent KD of MS2 coat protein recorded for AUUUUUCAUGCAGGAUAUGAUUAACAUGAGGAUCACCCAUGUGGUGUUGUGAGUAAGGAGAGUGAUCAGAAGGGCAUUUUUUUU [JMF's solution 94] (Eterna round: R96, puzzle: Same State NG 2)
// result 342

====

Exercise: state measured apparent KD of MS2 coat protein for each of the sequences provided.
# Test system: MS2 coat protein
# Experiment: apparent KD of MS2 coat protein; designed switch direction (-1 OFF switch, 1 ON switch): 1; higher = weaker reporter binding
# Experimental context: input ligand: none
Numeric answer only, unit µM assumed.

// query Note down apparent KD of MS2 coat protein recorded for GUUACAUGAGGAUCACCCAUGUAAGUGUGGGAGAAAGUGACUUAGGAUAUCUAAUAUUUAAAUUAAGAGAAGGAAGAUUGUUGU [JMF's solution 4] (Eterna round: R96, puzzle: Same State NG 3)
// result 0.0816

// query Note down apparent KD of MS2 coat protein recorded for GGUGCCAAUAAAGCCUACAUGAGGAUCACCCAUGUAUGUAGGCAGGAUAUCGUUUGCUUUGCAAACGAGAAGGGCUGAGGCACC [JL SSNG3 1.18] (Eterna round: R96, puzzle: Same State NG 3)
// result 0.0386

// query Note down apparent KD of MS2 coat protein recorded for UGAAUAUCUACAGGAUAUGAGUUGUAUAGUGGAUCAGAAGGGUGGGUGUUUUGCACGGUGUGUUACAUGAGGAUCACCCAUGUU [SameState NG1 #25] (Eterna round: R96, puzzle: Same State NG 1)
// result 0.324

// query Note down apparent KD of MS2 coat protein recorded for GCUCGACGUAUGGCCUACAUGAGGAUCACCCAUGUGACUGGGCAGGAUAUCUAGAUGCAGAAUGUAGAGAAGGGCCCGUCGAGC [SameState NG3 #48] (Eterna round: R96, puzzle: Same State NG 3)
// result 0.194

// query Note down apparent KD of MS2 coat protein recorded for GUAAAACAUGAGGAUCACCCAUGUCAACAAAGUCGAGGAUAUGGGCAAAUAAAAUAAGAACCAGAAGGCGAAUAAG [salish99_SS1_r3_009] (Eterna round: R96, puzzle: Same State 1)
// result 0.235

====

# System: MS2 coat protein
# Experiment: apparent KD of MS2 coat protein; designed switch direction (-1 OFF switch, 1 ON switch): -1; higher = weaker reporter binding
# Experimental context: input ligand: FMN 200 uM
Exercise: state measured apparent KD of MS2 coat protein for each of the sequences provided.
Numeric answer only, unit nM assumed.

// query Note down apparent KD of MS2 coat protein recorded for GGAGAGAAACAGGAUAUGGGAGGGAGGACCGGACCAGAAGGGUUGACAUGAGGAUCACCCAUGUAGAGAUCCUC [AK-MS2ROC-r4-exclusion6-6.7] (Eterna round: R97, puzzle: Exclusion 6)
// result 486

// query Note down apparent KD of MS2 coat protein recorded for CUUGUUUAUGUAGGAUAUGCCUGGCGUGCCUUUGCAGAAGGACAUGAGGAUCACCCAUGUAACAUGAGGCUCACCCAUGUCGCA [salish99_ExNG1_r04_104] (Eterna round: R96, puzzle: Exclusion NG 1)
// result 376

// query Note down apparent KD of MS2 coat protein recorded for CGUGUACGAGGAUAUAGAUUGGAUGACAUGAGGAUCACCCAUGUGAUCAAUCUAUUUGGUUUAGAAGGUGUACAUG [JR_Ex5_Sub050] (Eterna round: R97, puzzle: Exclusion 5)
// result 14.1

====

# System: MS2 coat protein
# Experiment: apparent KD of MS2 coat protein, switch OFF state (with FMN for OFF switches, without FMN for ON switches); designed switch direction (-1 OFF switch, 1 ON switch): 1; higher = weaker reporter binding
# Experimental context: FMN input: 0 or 200 uM; Eterna round: R93 (includes R88 designs)
Tag: class 1 if measured apparent KD of MS2 coat protein is not below 60 nM, class 0 if it is.

// query API: above_or_equal(metric=apparent KD of MS2 coat protein, cutoff=60 nM) for item AAUGAACAUGAGGAUCACCCAUGUUCUAAUAGUUGAGGAUAUAUGGGUGAAAAUAGCACGGUAGAAGGCGAGUGUA [SameState1 Malc#18]
// result class 1

// query API: above_or_equal(metric=apparent KD of MS2 coat protein, cutoff=60 nM) for item UGGAGGAAGAGAGAGGAUAUCCAAAGGAAAACAUGAGGAUCACCCAUGUAAAAGGUAGGAAAUUGGGAGAAGGCUCAAGAGAGAG [salish99-ss2-059]
// result class 1

// query API: above_or_equal(metric=apparent KD of MS2 coat protein, cutoff=60 nM) for item GACCGGGACGCGUAGGAUAUGUAGUGCGCUACAUGAGGAUCACCCAUGUGCGAGACUUCAAAAGAGCAGAAGGGUGUGUGCCCGG [Xegeedri]
// result class 1

// query API: above_or_equal(metric=apparent KD of MS2 coat protein, cutoff=60 nM) for item AAAAAACAUGAGGAUCACCCAUGUCUUUUGACAUGAGGAUAUGUACAGACUUCGGUCUGUACAGAAGGCAUAAAAA [SS1 - 1030]
// result class 1

// query API: above_or_equal(metric=apparent KD of MS2 coat protein, cutoff=60 nM) for item CAUAGACAUGAGGAUCACCCAUGUAGAAUUAUGGGAGGAUAUACAAAGACGAGAGUCAGAGUAGAAGGCCUAGGAC [salish99-ss1-164]
// result class 0

====

# Tested on: MS2 coat protein
# Experiment: apparent KD of MS2 coat protein; designed switch direction (-1 OFF switch, 1 ON switch): -1; higher = weaker reporter binding
# Experimental context: input ligand: microRNA oligo, concentration not stated
Exercise: state measured apparent KD of MS2 coat protein for each of the sequences provided.
Numeric answer only, unit µM assumed.

// query Note down apparent KD of MS2 coat protein recorded for AUAUCACAUGAGGAUCACCCAUGUCAGGAUAUGAUACUAUGUACUUCGGUACAUAGUAUCAGAAGGGAUAUGAA [Ex1-3: 66] (Eterna round: R96, puzzle: Exclusion 1)
// result 0.0292

// query Note down apparent KD of MS2 coat protein recorded for AGGGAGUGAGGAUAUACGAAAUAAAAAGAAGGAAAAAAAGAGUAGAAGGCACAUGAGGAUCACCCAUGUGAGAA [milkweed 12] (Eterna round: R96, puzzle: Exclusion 4)
// result 0.0169

// query Note down apparent KD of MS2 coat protein recorded for UGAUCUUUUGUUAGGAUAUGCUGUUUUUUUUUUCAGCAGAAGGGACAUGAGGAUCACCCAUGUUUUGUCAUAAA [Magic-06] (Eterna round: R96, puzzle: Brourd's mod of Exclusion 4)
// result 0.0241

====

# Test system: MS2 coat protein
# Experiment: apparent KD of MS2 coat protein; designed switch direction (-1 OFF switch, 1 ON switch): -1; higher = weaker reporter binding
# Experimental context: input ligand: none
Class boundaries, taken from values of apparent KD of MS2 coat protein, are as follows: A = under 20 nM, B = from 20 nM up to 40 nM, C = 40 nM and over

// query Kindly state the category for this sequence: ACAGUGUUAGGAUAUCUGAGAAUUAGUCUCGACUAGUCGAAGGAGAAGGAACAUGAGGAUCACCCAUGUAGAUC [EX4 #76] (Eterna round: R97, puzzle: Exclusion 4)
// result C

// query Kindly state the category for this sequence: GGAUCACAUGUUAGGAUAUGCUGGUCCUUGGAUCAGCAGAAGGGACAUGAGGAUCACCCAUGUCAUGAAGAUCC [Eli bmx4 4.81] (Eterna round: R97, puzzle: Brourd's mod of Exclusion 4)
// result B

// query Kindly state the category for this sequence: UUAAAACGUGUAGGAUAUGCGUGGCGAAGCUAUGCAGAAGGACAUGAGGAUCACCCAUGUUCCUGCGUCCGCGUACGGAUGCAA [JL Eng1 1.21 mod 2] (Eterna round: R96, puzzle: Exclusion NG 1)
// result A

// query Kindly state the category for this sequence: UAUAAGAUAGGAUAUACAGGCCCGUCUUCAUAUCGAUCCCGACAUGAGGAUCACCCAUGUAGAAGGAUCGUAUA [Mod 22 - Jieux - Exclusion 2] (Eterna round: R97, puzzle: Exclusion 2)
// result A

// query Kindly state the category for this sequence: UAGAUACAUGAGGAUCACCCAUGUGAGGAUAUGAGAAUUAUAUUAAAUGAAUGUAGUAUCAGAAGGCACAAAGG [JR_Ex1_Sub049] (Eterna round: R97, puzzle: Exclusion 1)
// result C

// query Kindly state the category for this sequence: UUGUAGUGAGGAUAUAUAUAGUGGUUUUAUUAAUUUUUAUUACUUGAGGAUCACCCAAGUAGAAGGCGCAAAGU [JR_Ex2_Sub071] (Eterna round: R97, puzzle: Exclusion 2)
// result A

// query Kindly state the category for this sequence: ACAUGUGUUGUAGGAUAUAGGAUACAUGAGGAUCACCCAUGUGGAUUCAUGUCUAAGGAAGCGUCCUAGAAGGACGACAACAUG [Ex NG2 #25] (Eterna round: R96, puzzle: Exclusion NG 2)
// result B

// query Kindly state the category for this sequence: GGAUCGAAUGUGAGGAUAUACCUAUGGAAACAUAGGUAGAAGGCACAUGAGGAUCACCCAUGUCCAAACGGUCC [Mat - Exclusion 4 - Eli Mod - D13] (Eterna round: R97, puzzle: Brourd's mod of Exclusion 4)
// result C
